Molecular target: T1, c-erbB-2 ECD with a Ser-Gly-His6 C-terminal fusion (UniProt P04626 23-652)
T1 construct: extracellular domain; Expressed from CHO cells, IMAC purified; coupled to a CM5 chip, coated on plates, or biotinylated with NHS-LC-biotin; also called c-erbB-2 extracellular domain; biotinylated c-erbB-2 ECD
Experiment: SPR BIAcore
ENDPOINT NAME: koff (s⁻¹)
A number alone suffices; assume s⁻¹.

Below are worked cases with known answers.
1. C6ML3-29 (scFv) scFv: QVQLLQSGAELKKPGESLKISCKGSGYSFTSYWIAWVRQMPGKGLEYMGLIYPGDSDTKYSPSFQGQVTISVDKSVSTAYLQWSSLKPSDSAVYFCARHDVGYCSSSNCAKWPEYFQHWGQGTLVTVSSGGGGSGGGGSGGGGSQSVLTQPPSVSAAPGQKVTISCSGSSSNIGNNYVSWYQQLPGTAPKLLIYGHTNRPAGVPDRFSGSKSGTSASLAISGFRSEDEADYYCAAWDGTLWGWVFGGGTKLTVLG : 0.0022
2. C6ML3-6 (scFv) scFv: QVQLLQSGAELKKPGESLKISCKGSGYSFTSYWIAWVRQMPGKGLEYMGLIYPGDSDTKYSPSFQGQVTISVDKSVSTAYLQWSSLKPSDSAVYFCARHDVGYCSSSNCAKWPEYFQHWGQGTLVTVSSGGGGSGGGGSGGGGSQSVLTQPPSVSAAPGQKVTISCSGSSSNIGNNYVSWYQQLPGTAPKLLIYGHTNRPAGVPDRFSGSKSGTSASLAISGFRSEDEADYYCASWDYSLSGWVFGGGTKLTVLG : 0.0019

Next binder, please.
What value of koff has been reported for the following binder? C6ML3-19 (scFv) scFv: QVQLLQSGAELKKPGESLKISCKGSGYSFTSYWIAWVRQMPGKGLEYMGLIYPGDSDTKYSPSFQGQVTISVDKSVSTAYLQWSSLKPSDSAVYFCARHDVGYCSSSNCAKWPEYFQHWGQGTLVTVSSGGGGSGGGGSGGGGSQSVLTQPPSVSAAPGQKVTISCSGSSSNIGNNYVSWYQQLPGTAPKLLIYGHTNRPAGVPDRFSGSKSGTSASLAISGFRSEDEADYYCASWDRPLWGWVFGGGTKLTVLG
0.001
